Catalogue of self-cleavage kobs at 10000 uM GlcN6P readings, one per entry.
B1: glmS ribozyme (parent)
chain: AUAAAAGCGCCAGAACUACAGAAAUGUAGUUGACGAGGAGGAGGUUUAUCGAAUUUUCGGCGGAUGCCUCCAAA

variants of: B1; test: self-cleavage kobs at 10000 uM GlcN6P; higher = faster cleavage; RNA array; conditions: with glucosamine-6-phosphate
This sample holds only a part of the variants without activity.
Respond with the bare value in s⁻¹.

Here is how some variants turned out for self-cleavage kobs at 10000 uM GlcN6P.
- AUAAAAGCGCCAGAACUACAGAAAUGUAGUGGACGAGGAGCAGGUUUAUCGAAUUUUCGGCGGAUGCCUCCAAA [U31G G41C]: 0.000139
- AUAAAAGCGCCAGAACUACAGAAAUGUAGUUGACGAGGUGGAGGUUUAUCGAUUUUUCGGCGGAUGCCUCCAAA [A39U A53U]: 0.0126
- AUAAAAGCGCCGGAACUACAGAAAUGUAGUUUACGAGGAGGAGGUUUAUCGAAUUUUCGGCGGAUGCCUCCAAA [A12G G32U]: 0.00144

In the following, a different variant is considered.
// self-cleavage kobs at 10000 uM GlcN6P value for AUAAAAGCGCCAGAACUACAGAAAUGUAGUUGACGAGGAGGAGGUUUAUCGAAUUUUCGGCGGAUGUCUUCAAA [C67U C70U] : 0.000377
